System: TK-10
assay.method.text: NCI tumour cell line growth inhibition, 48 h
Activity calls are given as the source filed them. Rule as the data show it: active = GI50 up to about 1.1 µM and inactive = higher.
Write down the outcome that applies. Available outcomes: True for active, False for inactive

Known results for molecules:
COc1ccc(C(C#N)NNC(=O)c2ccccc2O)cc1OC (stereo not given) ... False
CCCCCCCCCCCCCCCC(=O)OCC1CCCN2CCCCC12 (stereo not given) ... False
O=C(/C=C/c1cccs1)c1ccsc1 ... False
CC1CC2(CCC1OCc1ccccc1)OCCO2 (stereo not given) ... False
COC(=O)c1ccccc1Nc1nc(-c2cccs2)nc2cc(OC)c(OC)cc12 ... False
CCC1(c2ccc(N3C(=O)c4ccccc4C3=O)cc2)CCC(=O)NC1=O (stereo not given) ... False

Ask | GET /call?item= O=C(Oc1ccc2c(c1)CN(Cc1ccccc1)CO2)c1ccccc1 returns the recorded outcome of this test.
Reply | False

Ask | GET /call?item= CCCCNCC(=O)O[C@]1(CC)C(=O)OCc2c1cc1n(c2=O)Cc2cc3ccccc3nc2-1 returns the recorded outcome of this test.
Reply | False

Ask | GET /call?item= C=C1[C@H](OC(C)=O)[C@H]2[C@@H](OC(C)=O)[C@@H](C)C[C@]2(C)C(=O)[C@H](C)/C=C/C(C)(C)C(=O)[C@H](OCC(C)C)[C@H]1OC(C)=O returns the recorded outcome of this test.
Reply | False

Ask | GET /call?item= CC(C)=CC1CC(C)C2(CCC3(C)CC4C(C(=O)CC4(C)O)/C(C=O)=C\CC32)O1 (stereo not given) returns the recorded outcome of this test.
Reply | True

Data origin: ChEMBL document CHEMBL1201862
